target_or_test_system: UniProtKB Q64077
Sequence (Q64077 whole entry): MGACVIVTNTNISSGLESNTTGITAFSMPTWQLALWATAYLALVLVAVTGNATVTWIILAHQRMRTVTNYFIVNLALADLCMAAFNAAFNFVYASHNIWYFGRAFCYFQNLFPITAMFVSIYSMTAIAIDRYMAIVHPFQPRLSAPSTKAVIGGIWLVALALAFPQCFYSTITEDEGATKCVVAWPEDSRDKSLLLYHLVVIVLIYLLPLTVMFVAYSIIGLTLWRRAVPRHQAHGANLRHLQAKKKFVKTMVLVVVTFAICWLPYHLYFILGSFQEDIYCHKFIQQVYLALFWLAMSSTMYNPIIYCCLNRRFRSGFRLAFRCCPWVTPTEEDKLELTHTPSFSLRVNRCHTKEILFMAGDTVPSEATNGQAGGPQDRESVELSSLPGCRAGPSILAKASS
experiment_summary: Inhibition of [beta-Ala]NKA(4-10)-induced contraction of isolated guinea pig trachea
Assay type: functional, tissue-based
readout: pKB
Respond with the number and no other words.

// compound CCCC(O)C1CCN(CCC(CN(C)C(=O)c2ccccc2)c2ccc(Cl)c(Cl)c2)CC1 (centres undefined) , assay UniProtKB Q64077, pKB value: 7.5

GET /values?item= CC(=O)NC1(c2ccccc2)CCN(CCC(CN(C)C(=O)c2ccccc2)c2ccc(Cl)c(Cl)c2)CC1 (stereo in doubt; 2) &system= UniProtKB Q64077 returns pKB: 9.2

The compound CCCC1CCN(CCC(CN(C)C(=O)c2ccccc2)c2ccc(Cl)c(Cl)c2)CC1 (centres undefined) , when measured on UniProtKB Q64077, yielded pKB of 7.5

Observed pKB, UniProtKB Q64077, CC/C(=N/O)C1CCN(CCC(CN(C)C(=O)c2ccccc2)c2ccc(Cl)c(Cl)c2)CC1 (centres undefined) : 8.8

For CC(=O)NC1(c2ccccc2)CCN(CCC(CN(C)C(=O)c2ccccc2)c2ccc(Cl)c(Cl)c2)CC1 (stereo in doubt; 1) on UniProtKB Q64077, measured pKB was 9.1

Simply: CCC(O)(CC)C1CCN(CCC(CN(C)C(=O)c2ccccc2)c2ccc(Cl)c(Cl)c2)CC1 (centres undefined) , UniProtKB Q64077, pKB = 8.8

Reading of pKB for `CCC(O)(CC)C1CCN(CC[C@H](CN(C)C(=O)c2ccccc2)c2ccc(Cl)c(Cl)c2)CC1` with UniProtKB Q64077: 8.1

The measured pKB that CC(O)C1CCN(CCC(CN(C)C(=O)c2ccccc2)c2ccc(Cl)c(Cl)c2)CC1 (centres undefined) showed for UniProtKB Q64077 is 7.8

Note to self: pKB of CC(=O)NCCC1CCN(CCC(CN(C)C(=O)c2ccccc2)c2ccc(Cl)c(Cl)c2)CC1 (centres undefined) with UniProtKB Q64077 was 7.9

Data provenance is ChEMBL document CHEMBL1130898.
